Taken from patent US20240383915A1.

- SYSTEM TESTED: KRas(G12V) (Homo sapiens (Human), UniProt P01116, G12V)
- Sequence (P01116-2 other isoform, or with tags, fused parts or gaps G12V): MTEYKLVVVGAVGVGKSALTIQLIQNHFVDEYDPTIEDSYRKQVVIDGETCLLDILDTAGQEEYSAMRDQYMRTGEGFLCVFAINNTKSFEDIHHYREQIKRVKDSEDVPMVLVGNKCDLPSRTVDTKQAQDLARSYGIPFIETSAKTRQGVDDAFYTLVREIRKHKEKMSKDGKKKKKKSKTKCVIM
- ASSAY EXPLANATION: KRas(G12V) GDP HTRF (BODIPY-GDP exchange TR-FRET)
Quick reference: pIC50 of the listed items.
For clarity, pIC50 is expressed as the negative log10 of concentration in mol/L.

COMPOUND	SYSTEM TESTED	pIC50
C=C1CN2CCC[C@@]2(COc2nc3c4c(c(Cl)c(-c5cc(O)cc6ccccc56)cc4n2)OCCN3C)C1 [Example 59]	KRas(G12V) (Homo sapiens (Human), UniProt P01116, G12V)	7.24
Cc1cc(N)nc(-c2c(Cl)c3c4c(nc(OC[C@@H]5CC[C@H]6CN(S(C)(=O)=O)CCN56)nc4c2F)N([C@H](C)c2cccnc2N)CCO3)c1C(F)(F)F (atropisomer, axis not shown; (aS)) [Example 125a]	KRas(G12V) (Homo sapiens (Human), UniProt P01116, G12V)	9.92
Cc1cc(N)nc(-c2cc3ncnc4c3c(c2Cl)OCCN4C2CCc3c(N)cncc32)c1C(F)(F)F (centres unmarked) [Example 37]	KRas(G12V) (Homo sapiens (Human), UniProt P01116, G12V)	7.28
Cc1cc(N)nc(-c2cc3nc(OC[C@]45CCCN4CC(F)(F)C5)nc4c3c(c2Cl)OCCN4C)c1C(F)(F)F [Example 7]	KRas(G12V) (Homo sapiens (Human), UniProt P01116, G12V)	6.38
Cc1cc(N)nc(-c2cc3ncnc4c3c(c2Cl)OCCN4Cc2cncnc2N)c1C(F)(F)F [Example 26]	KRas(G12V) (Homo sapiens (Human), UniProt P01116, G12V)	7.28

Query :: Report value: pIC50, system: KRas(G12V) (Homo sapiens (Human), UniProt P01116, G12V), compound: Cc1cc(N)nc(-c2c(Cl)c3c4c(nc(OC[C@@]56CCN5CC(F)(F)C6)nc4c2F)N([C@H](C)c2ccnnc2N)CCO3)c1C(F)(F)F (atropisomer, axis not shown) [Example 77a]
Result :: 9.92

Query :: Report value: pIC50, system: KRas(G12V) (Homo sapiens (Human), UniProt P01116, G12V), compound: CCO[C@H]1CN2CCC[C@@]2(COc2nc3c4c(c(Cl)c(-c5nc(N)cc(C)c5C(F)(F)F)c(F)c4n2)OCCN3[C@H](C)c2cccnc2N)C1 (atropisomer, axis not shown; (aS)) [Example 89]
Result :: 10.12

Query :: Report value: pIC50, system: KRas(G12V) (Homo sapiens (Human), UniProt P01116, G12V), compound: Cc1cc(N)nc(-c2cc3ncnc4c3c(c2Cl)OCCN4Cc2ccnnc2N)c1C(F)(F)F [Example 56]
Result :: 7.66

Query :: Report value: pIC50, system: KRas(G12V) (Homo sapiens (Human), UniProt P01116, G12V), compound: Cc1cc(N)nc(-c2c(Cl)c3c4c(nc(OC[C@@H]5CC[C@H]6COCCN65)nc4c2F)N([C@H](C)c2cncnc2N)CCO3)c1C(F)(F)F (atropisomer, axis not shown; (aS)) [Example 102a]
Result :: 10.03

Query :: Report value: pIC50, system: KRas(G12V) (Homo sapiens (Human), UniProt P01116, G12V), compound: Cc1cc(N)nc(-c2c(Cl)c3c4c(nc(OC[C@@H]5CCCN5CC(F)F)nc4c2F)N([C@H](C)c2cccnc2N)CCO3)c1C(F)(F)F (atropisomer, axis not shown) [Example 115]
Result :: 9.33

Query :: Report value: pIC50, system: KRas(G12V) (Homo sapiens (Human), UniProt P01116, G12V), compound: Cc1cc(N)nc(-c2c(Cl)c3c4c(nc(OCC5(C)CCOCC5)nc4c2F)N([C@H](C)c2cccnc2N)CCO3)c1C(F)(F)F (atropisomer, axis not shown) [Example 144]
Result :: 8.85
